MEASUREMENT_DESCRIPTION: photoluminescence quantum yield (fraction); solvent given as SMILES
CONDITION_DESCRIPTION: in ClC(Cl)Cl
Provide the recorded photoluminescence quantum yield for the entries that follow.
# respond with the number and nothing more

Problem: Data request, read-out photoluminescence quantum yield, for CN(C)/C=N\c1ccc2c3c(cccc13)C(=O)c1ccccc1-2
Solution: 0.55

Problem: Quick check: photoluminescence quantum yield of Cc1cc(C)c(B(c2c(C)cc(C)cc2C)c2cc3ccc4ccccc4c3c3c2cc(N(C)C)c2ccccc23)c(C)c1 ?
Solution: 0.1

Problem: # query: photoluminescence quantum yield of entry COc1ccc(N(c2ccc(OC)cc2)c2cc3ccc4cc(B(c5c(C)cc(C)cc5C)c5c(C)cc(C)cc5C)cc5ccc(c2)c3c45)cc1
Solution: 0.23

Problem: Dear colleague, I am looking for the recorded photoluminescence quantum yield of the following molecule: CN(C)c1ccc2nc(-c3ccc(/C=N/Nc4ccccc4)cc3)sc2c1
Solution: 0.057

Problem: // query photoluminescence quantum yield value for entry CCCCCCc1ccc(-n2c3c4cccc(OC)c4nc(-c4ccc(C#N)cc4)c3c3c2c2c(-c4ccc(C#N)cc4)nc4c(OC)cccc4c2n3-c2ccc(CCCCCC)cc2)cc1
Solution: 0.13

Problem: Sample CCCN1c2ccccc2Sc2cc(/C=C\c3cc(=O)oc4ccc(C)cc34)ccc21 — what was its photoluminescence quantum yield?
Solution: 0.76

Problem: What measured photoluminescence quantum yield goes with O=C1c2ccc3c4c(NC5CCCCC5)cc5c6c(ccc(c7c(NC8CCCCC8)cc(c2c37)C(=O)N1C1CCCCC1)c64)C(=O)N(C1CCCCC1)C5=O ?
Solution: 0.008

Problem: Given the molecule CCCCCCCCCCCCOc1cc2c3c(ccc4c5c(N6CCOCC6)cc6c7c(ccc(c1c34)c75)C(=O)N(C1CCCCC1)C6=O)C(=O)N(C1CCCCC1)C2=O , what is its reported photoluminescence quantum yield?
Solution: 0.067

Problem: What value of measured photoluminescence quantum yield is listed for CCCCCCCCN1c2ccc(C#Cc3ccc(F)cc3)cc2Sc2cc(C=O)ccc21 ?
Solution: 0.4

Problem: Which measured photoluminescence quantum yield value corresponds to COc1cc2c(cc1-c1ccccc1)Cc1c3c(c4c(c1-2)-c1cc(OC)c(-c2ccccc2)cc1C4)C(=O)N(CCC(C)C)C3=O ?
Solution: 0.64

Problem: Which photoluminescence quantum yield is reported for this molecule? CCCCN1C(=O)c2c(Br)c(Br)c3c4c(Br)c(Br)c5c6c(c(Br)c(Br)c(c7c(Br)c(Br)c(c2c37)C1=O)c64)C(=O)N(CCCC)C5=O
Solution: 0.01

Problem: Value lookup for photoluminescence quantum yield; key = CN(C)C(=O)c1ccc(-c2nc3ccc(N(C)C)cc3s2)cc1
Solution: 0.89

Problem: Which value of photoluminescence quantum yield has been reported for C[Si](C)(C)C#C[Si](c1c2ccccc2cc2ccccc12)(c1c2ccccc2cc2ccccc12)c1c2ccccc2cc2ccccc12 in the records?
Solution: 0.04

Problem: I am curious: what photoluminescence quantum yield value has been reported for CC(=O)OCCN1C(=O)c2cccc3c(Oc4ccccc4C)ccc(c23)C1=O ?
Solution: 0.12

Problem: Reported photoluminescence quantum yield for CCCCCCn1c2cc(/C=C/c3ccccc3)ccc2c2ccc(/C=C/c3ccccc3)cc21 : what is it?
Solution: 0.91

Problem: What does the data say about its photoluminescence quantum yield? Entry: F[B-]1(F)n2c(nc(Br)c2Br)-c2cccc[n+]21
Solution: 0.41

---

Exercise: for every item that follows, state its recorded photoluminescence quantum yield.
MEASUREMENT_DESCRIPTION: photoluminescence quantum yield (fraction); solvent given as SMILES
CONDITION_DESCRIPTION: in C1CCOC1
Please give the numeric answer without any surrounding text.

Problem: Consider the compound C[Si]1(c2ccccc2)C(c2ccc3c(c2)c2ccccc2n3-c2ccccc2)=C(c2ccccc2)C(c2ccccc2)=C1c1ccc2c(c1)c1ccccc1n2-c1ccccc1 and give its measured photoluminescence quantum yield.
Solution: 0.04

Problem: Report photoluminescence quantum yield for C(#Cc1ccc(N(c2ccc(C#Cc3ccc(-c4cc(-c5ccccc5)nc(-c5ccccc5)c4)cc3)cc2)c2ccc(C#Cc3ccc(-c4cc(-c5ccccc5)nc(-c5ccccc5)c4)cc3)cc2)cc1)c1ccc(-c2cc(-c3ccccc3)nc(-c3ccccc3)c2)cc1 please.
Solution: 0.12

Problem: Consider the compound F[B-]1(F)n2c(/C=C/c3ccc(C(=C(c4ccccc4)c4ccccc4)c4ccccc4)cc3)ccc2C(c2ccccc2)=C2C=CC(/C=C/c3ccc(C(=C(c4ccccc4)c4ccccc4)c4ccccc4)cc3)=[N+]21 and give its measured photoluminescence quantum yield.
Solution: 0.42

Problem: Request the reported photoluminescence quantum yield associated with COc1ccc(C#Cc2nc3ccccc3nc2-c2cn(C)c3ccccc23)cc1
Solution: 0.19

Problem: Given the entry COc1ccc(/C=C/C2=CC(/C=C/c3ccc(OC)cc3)=[O+][B-](OC(C)=O)(OC(C)=O)O2)cc1 , report its measured photoluminescence quantum yield.
Solution: 0.95

Problem: Consider the compound Cc1ccc(/C(C#N)=C/c2cc(/C=C(\C#N)c3ccc(C)cc3)c(-c3ccc(N(c4ccccc4)c4ccccc4)cc3)cc2-c2ccc(N(c3ccccc3)c3ccccc3)cc2)cc1 and give its measured photoluminescence quantum yield.
Solution: 0.045

Problem: Entry under review: COc1ccc(C(=Cc2ccc(C=O)cc2)c2ccc(OC)cc2)cc1 . Reported photoluminescence quantum yield?
Solution: 0.066

Problem: Value lookup for photoluminescence quantum yield; key = CC(C)(C)NC1=CC2=c3cc(NC(C)(C)C)c4nc(C(F)(F)C(F)(F)C(F)(F)F)nc5c(NC(C)(C)C)cc(c3c54)C3=CC(NC(C)(C)C)=C4N=C(C(F)(F)C(F)(F)C(F)(F)F)N=C1C4C32 (stereo not drawn)
Solution: 0.25

Problem: What photoluminescence quantum yield value was documented for this compound, CN(C)/C=N\c1ccc2c3c(cccc13)C(=O)c1ccccc1-2 ?
Solution: 0.23

Problem: Which photoluminescence quantum yield is listed for CCCCCCc1ccc2c3c(ccc2c1)O[B-](F)(F)[N+](c1ccc([N+]2=Cc4c(ccc5cc(CCCCCC)ccc45)O[B-]2(F)F)cc1)=C3 ?
Solution: 0.35

Problem: I would be grateful if you could share the reported photoluminescence quantum yield for Cc1ccc(C2CC(c3ccc(O)cc3)=NN2c2ccc(S(N)(=O)=O)cc2)cc1 (stereo not drawn) .
Solution: 0.7

Problem: So what does the record say about photoluminescence quantum yield for CCCCCCCCc1ccc(-c2c3cc(-c4cc(CCCCCCCC)c(-c5ccc(-c6sc(/C=C7\SC(N8CCCCC8)=NC7=O)cc6CCCCCCCC)s5)s4)sc3c(-c3ccc(CCCCCCCC)s3)c3cc(-c4cc(CCCCCCCC)c(-c5ccc(-c6sc(/C=C7\SC(N8CCCCC8)=NC7=O)cc6CCCCCCCC)s5)s4)sc23)s1 ?
Solution: 0.214

Problem: photoluminescence quantum yield lookup needed for Cc1cc(C)c(C2=C3C=c4c(c5ccccc5c5ccccc45)=[N+]3[B-](F)(F)n3c2cc2c4ccccc4c4ccccc4c23)c(C)c1 , thanks.
Solution: 0.55

Problem: Value lookup for photoluminescence quantum yield; key = CCCCCCc1ccc(-n2c3[n+](c4c5ccccc5c5ccccc5c42)[B-](C)(C)c2cc(N(c4ccccc4)c4ccccc4)ccc2-3)cc1
Solution: 0.86

Problem: Fill in the blank: the reported photoluminescence quantum yield of CCCCN1C(=O)c2cc(Oc3ccc(C(C)(C)C)cc3)c3c4c(Oc5ccc(C(C)(C)C)cc5)cc5c(=O)[nH]/c(=C\c6ccc7ccccc7n6)c6cc(Oc7ccc(C(C)(C)C)cc7)c(c7c(Oc8ccc(C(C)(C)C)cc8)cc(c2c37)C1=O)c4c56 is ____.
Solution: 0.3

Problem: State the recorded photoluminescence quantum yield for this entry: CCCCCCCCOc1ccc2c3cccc4c(OCCCCCCCC)ccc(c5cccc1c52)c43
Solution: 0.94

Problem: Item C(=C1c2ccccc2-c2ccccc21)c1ccc(-c2ccc(C=C3c4ccccc4-c4ccccc43)cc2)cc1 has what recorded photoluminescence quantum yield?
Solution: 0.0015

Problem: What photoluminescence quantum yield value was documented for this compound, Cc1cc(C)c(B(c2c(C)cc(C)cc2C)c2cc3ccc4ccccc4c3c3c2cc(N(C)C)c2ccccc23)c(C)c1 ?
Solution: 0.09

Problem: // query photoluminescence quantum yield value for entry Cc1ccc(N(c2ccc(C)cc2)c2ccc(-c3ccc4c(c3)C(=O)c3ccccc3C4=O)cc2)cc1
Solution: 0

Problem: Which value of photoluminescence quantum yield has been reported for O=c1oc2cccc3c4cccc5ccc6c7ccccc7c1c(c23)c6c54 in the records?
Solution: 0.287

Problem: Reported photoluminescence quantum yield for Cc1ccccc1C(=O)NN1C2=C(CC3=C1CC(C)(C)CC3=O)C(=O)CC(C)(C)C2 : what is it?
Solution: 0.26

Problem: Using the record for CCOC(=O)C1=C(C)NC2=C(C(=O)c3ccccc32)C1c1ccc(N(C)C)cc1 (stereo not drawn) , report its photoluminescence quantum yield.
Solution: 0.34

Problem: // lookup photoluminescence quantum yield for Cc1ccc(C)n1-c1cccc(C#N)c1
Solution: 0.006

Problem: I am curious: what photoluminescence quantum yield value has been reported for Cc1csc2[n+]1[B-](F)(F)n1c(c3cccc4cccc1c43)=N2 ?
Solution: 0.83

Problem: Find the recorded photoluminescence quantum yield belonging to Cc1cc(C)c([B-]2(c3c(C)cc(C)cc3C)[O+]=P(c3ccccc3)(c3ccccc3)c3cc(-c4ccc(C(C)(C)C)cc4)sc3-c3sc(-c4ccc(C(C)(C)C)cc4)cc32)c(C)c1 and report it.
Solution: 0.16

Problem: # lookup: photoluminescence quantum yield of CCn1c2ccc(/C=C/c3ccc4c(c3)c3cc(-c5nc6ccccc6s5)ccc3n4CC)cc2c2cc(-c3nc4ccccc4s3)ccc21
Solution: 0.65

Problem: Would you mind telling me what photoluminescence quantum yield value was observed for c1coc(-c2nc3ccccc3[nH]2)c1 ?
Solution: 0.87

Problem: Give its photoluminescence quantum yield value. Item: CCCCCCCCCc1c2ccccc2cc2c1oc1c3c(c4ccccc4c12)-c1c(c2oc4cc5ccccc5cc4c2c2ccccc12)OCO3
Solution: 0.7
